Ref: patent EP2284178A2

# Measurement target: human Proteasome (Homo sapiens, UniProt P28074)
Test readout: IC50 (µM)
Write it as a number; the unit µM goes unstated.

Ask: Can you look up the measured IC50 of O=C1CN(/N=C/C(Cc2ccccc2)NC(=O)c2csc(-c3ccc4c(c3)CCO4)n2)C(=O)N1 (stereo not shown) for me?
Reply: 3.5
